The origin of these recorded values is paper PMC3510433.

# Experimental system: human 11β-HSD1 (Homo sapiens, UniProt P28845)
# Construct: expressed in transfected cells; host or cells: HEK-293 (human), stably transfected
# Sequence (P28845 whole entry): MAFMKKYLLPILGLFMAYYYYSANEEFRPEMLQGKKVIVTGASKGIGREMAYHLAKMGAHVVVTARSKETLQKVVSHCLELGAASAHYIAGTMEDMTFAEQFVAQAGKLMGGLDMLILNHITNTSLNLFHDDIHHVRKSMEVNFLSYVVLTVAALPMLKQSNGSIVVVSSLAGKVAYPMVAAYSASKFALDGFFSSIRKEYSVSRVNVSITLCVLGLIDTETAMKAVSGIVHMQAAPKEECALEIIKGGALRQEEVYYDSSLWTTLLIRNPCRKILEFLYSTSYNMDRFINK
# Assay notes: 11β-HSD1 inhibition, human HEK-293 cell based assay (SPA)
# Applied conditions: HEK293; 1 μM, HEK-293 cells transfected with HSD11B1; read-out: Percentage of inhibition measured at 1 μM
inhibition at 1 µM listing for selected compounds.
Unit % implied. Number only.

Some entries whose results are on file:
Compound: Cc1csc(CN(C)C(=O)C23CC4CC(CC(C4)C2)C3)c1 [Compound 8]
Unit label: %
inhibition at 1 µM: 55
--
Compound: O=C(NCc1ccco1)C12CC3CC(CC(C3)C1)C2 [Compound 14]
Unit label: %
inhibition at 1 µM: 68
--
Compound: CN(Cc1sccc1N)C(=O)C12CC3CC(CC(C3)C1)C2 [Compound 7]
Unit label: %
inhibition at 1 µM: 12

Q: Return inhibition at 1 µM measured with human 11β-HSD1 (Homo sapiens, UniProt P28845) given this compound: Cc1ccc(CN(C)C(=O)C23CC4CC(CC(C4)C2)C3)s1 [Compound 10]
Result: 32

----------
# Experimental system: human 11β-HSD1 (Homo sapiens, UniProt P28845)
# Construct: expressed in transfected cells; host or cells: HEK-293 (human), stably transfected
# Assay notes: 11β-HSD1 inhibition, human HEK-293 cell based assay (SPA)
# Applied conditions: HEK-293 cells stably transfected with HSD11B1; mean of 3 measurements
Quick rule for you: IC50 under 400 nM gets Y, anything else gets N.

Worked cases, answers included:
Chemical structure: CN(CCc1cccs1)C(=O)C12CC3CC(CC(C3)C1)C2
Assigned class: N

Chemical structure: CN(CCc1ccccn1)C(=O)C12CC3CC(CC(C3)C1)C2
Assigned class: Y

Chemical structure: CN(Cc1ccco1)C(=O)C12CC3CC(CC(C3)C1)C2
Assigned class: Y

Q: Please let me know if `CN(Cc1ccsc1)C(=O)CC12CC3CC(CC(C3)C1)C2` shows IC50 below 400 nM.
Result: Y

Q: // next record `CN(Cc1cccs1)C(=O)C1(C)CCCCC1`
Result: N

----------
Each entry below lists one item and its recorded IC50 value.
# Experimental system: human 11β-HSD1 (Homo sapiens)
# Construct: expressed in transfected cells; host or cells: HEK-293 (human), stably transfected
# Assay notes: 11β-HSD1 inhibition, human HEK-293 cell based assay (SPA)
# Applied conditions: HEK-293 cells stably transfected with HSD11B1; mean of 3 measurements
Return type: number; implicit unit nM.

Please review the following examples before continuing.
Chemical structure: O=C(NCc1cccs1)C12CC3CC(CC(C3)C1)C2
Unit label: nM
IC50: 403
//
Chemical structure: CN(Cc1cccn1C)C(=O)C12CC3CC(CC(C3)C1)C2
Unit label: nM
IC50: 114
//
Chemical structure: O=C(NCc1cccnc1)C12CC3CC(CC(C3)C1)C2
Unit label: nM
IC50: 676
//
Chemical structure: Cn1cccc1CNC(=O)CC12CC3CC(CC(C3)C1)C2
Unit label: nM
IC50: 2880
//
Chemical structure: Cn1cccc1CNC(=O)C12CC3CC(CC(C3)C1)C2
Unit label: nM
IC50: 1700

Q: // returns reported IC50 for input `CN(Cc1cccn1C)C(=O)CC12CC3CC(CC(C3)C1)C2`
Result: 655

Q: Same question for `O=C(NCCc1cccs1)C12CC3CC(CC(C3)C1)C2` please.
Result: 679

Q: Now consider `CN(Cc1cccs1)C(=O)C1(c2ccc(Cl)cc2)CCCC1` and answer again.
Result: 2200

Q: # repeat for `CN(Cc1cccs1)C(=O)C12CC3CC(CC(C3)C1)C2`
Result: 229

Q: Item: `CN(Cc1cccc(N)c1)C(=O)C12CC3CC(CC(C3)C1)C2`
Result: 118

Q: Then this compound: `Cc1ccsc1CN(C)C(=O)C12CC3CC(CC(C3)C1)C2`
Result: 275

Q: Also need `Cc1ccc(C2(C(=O)N(C)Cc3cccs3)CC2)cc1` , thanks.
Result: 280

Q: Then what about the compound `CN(Cc1cccs1)C(=O)C12CC3CC(CC1C3)C2` ?
Result: 1080

Q: And the next one, `CN(Cc1cccs1)C(=O)C1(c2ccc(Cl)cc2)CC1` ?
Result: 1550
